Answer each item with its documented Activity.
System: Mus musculus
Test: Toxicity in ICR mouse implanted with mouse H22-H8D8 cells assessed as body weight at 5 mg/kg, iv (reference value: 29.89 to 33.78 g)
Format: organism-based
Settings: in vivo

Task item: Give recorded Activity. CCOC(=O)C1=C(N)Oc2c(N)cc3nc4ccccc4nc3c2C1c1cccc(Cl)c1Cl (centres undefined)
Reply: 37.78 g

Task item: Using the record for N#CC1=C(N)Oc2c(N)cc3nc4ccccc4nc3c2C1c1ccc(Cl)c(Cl)c1 (centres undefined) , state its measured Activity.
Reply: 38 g

Task item: Retrieve Activity measured for N#CC1=C(N)Oc2c(N)cc3nc4ccccc4nc3c2C1c1ccc(Cl)cc1 (centres undefined) and print it.
Reply: 40 g

Task item: Give Activity for CCOC(=O)C1=C(N)Oc2c(N)cc3nc4ccccc4nc3c2C1c1ccccc1Br (centres undefined)
Reply: 35.78 g

* * *

Assay: Antitumor activity against mouse H22-H8D8 cells implanted in ICR mouse assessed as tumor growth inhibition at 10 mg/kg, iv relative to control
Type: functional
Settings: read-out: TGI
quantityKind: inhibition in vivo at 10 mg/kg (%)
Note: unit % is implicit; provide only the numeric part.

Task item: State its inhibition in vivo at 10 mg/kg for this compound: N#CC1=C(N)Oc2c(N)cc3nc4ccccc4nc3c2C1c1ccc(Cl)cc1 (centres undefined)
Reply: 11.7

Task item: Quickly give me recorded inhibition in vivo at 10 mg/kg for CCOC(=O)C1=C(N)Oc2c(N)cc3nc4ccccc4nc3c2C1c1cccc(Cl)c1Cl (centres undefined)
Reply: 4.5

Task item: Kindly indicate its recorded inhibition in vivo at 10 mg/kg. Item: CCOC(=O)C1=C(N)Oc2c(N)cc3nc4ccccc4nc3c2C1c1ccccc1Br (centres undefined)
Reply: 28.9

Task item: Input N#CC1=C(N)Oc2c(N)cc3nc4ccccc4nc3c2C1c1ccc(Cl)c(Cl)c1 (centres undefined) , output reported inhibition in vivo at 10 mg/kg.
Reply: 68.9
